target: rat KOR (Rattus norvegicus); construct: expressed in transfected cells; assay: radioligand equilibrium competition binding, KOR; settings: CHO cell membranes, [3H]diprenorphine; mean ± SEM, at least three experiments
pKi: −log10 of the molar value. Square brackets hold non-standard residues; d marks the D form. Peptide text beside a SMILES is read from it. 1Nal = N[C@@H](Cc1cccc2ccccc12)C(=O)O; 2Nal = N[C@@H](Cc1ccc2ccccc2c1)C(=O)O; d1Nal = N[C@H](Cc1cccc2ccccc12)C(=O)O; Bta = N[C@@H](Cc1csc2ccccc12)C(=O)O; dBta = N[C@H](Cc1csc2ccccc12)C(=O)O
Where pKi equals or exceeds 8, the correct label is rule met; where it does not, the label is rule not met.

Please review the following examples before continuing.
compound	classification
O=C1N[C@@H](Cc2ccccc2)C(=O)N2CCC[C@@H]2C(=O)N[C@@H](Cc2ccccc2)C(=O)N[C@H]1Cc1cccc2ccccc12 [Nal(1′)^4, [Nal(1′)^4]CJ-15,208] (cyclo(F[dP]F[1Nal]))	rule not met
O=C1N[C@@H](Cc2ccccc2)C(=O)N2CCC[C@@H]2C(=O)N[C@@H](Cc2ccccc2)C(=O)N[C@H]1Cc1ccc2ccccc2c1 [Nal(2′)^4, [Nal(2′)^4]CJ-15,208] (cyclo(F[dP]F[2Nal]))	rule not met

Query block: Test whether the compound O=C1N[C@H](Cc2cccc3ccccc23)C(=O)N[C@@H](Cc2ccccc2)C(=O)N2CCC[C@@H]2C(=O)N[C@H]1Cc1ccccc1 [D-Nal(1′)^4, [D-Nal(1′)^4]CJ-15,208] (cyclo(F[dP]F[d1Nal])) records pKi of 8 or higher.
Result block: rule not met

Query block: Next compound up: O=C1N[C@H](Cc2csc3ccccc23)C(=O)N[C@@H](Cc2ccccc2)C(=O)N2CCC[C@@H]2C(=O)N[C@H]1Cc1ccccc1 [D-Bta^4, [D-Bta^4]CJ-15,208] (cyclo(F[dP]F[dBta]))
Result block: rule met

Query block: Next compound up: O=C1N[C@@H](Cc2ccccc2)C(=O)N2CCC[C@@H]2C(=O)N[C@@H](Cc2ccccc2)C(=O)N[C@H]1Cc1csc2ccccc12 [Bta^4, [Bta^4]CJ-15,208] (cyclo(F[dP]F[Bta]))
Result block: rule not met
